# target or test system: AAV9 (adeno-associated virus serotype 9)
# assay protocol: SPR, AAV on CM5 chip
Reported koff by item:
readout kind: koff (s⁻¹)

[
  {
    "binder": "A4-B1 (VHH) VQLQESGGGLVQPGGSLRLSCAASGSIFSINLMGWYRQAPGKQRELVATITRGGNTNYAGSVKGRFTISRDNAKNTVYLQMNSLRPEDTAVYYCHVDEVRQSSWTTSNLWGQGTQVTVSSGGGGSGGGGSGGGGSVQLQESGGGLVQPGGSLRLSCAASGSIFSINLMGWYRQAPGKQRELVATITRGGNTNYAGSVKGRFTISRDNAKNTVYLQMNSLRPEDTAVYYCHVDEVRQSSWTTSNLWGQGTQVTVSS",
    "readout kind": "koff",
    "experimental result": 0.00014
  },
  {
    "binder": "A4-C2 (VHH) VQLQESGGGLVQPGGSLRLSCAASGSAFSINTMGWYRQAPGKQRELVASVTPGGSTNYADSVKGRFTISRDNAKNTIYLQMNSLRPEDTAVYYCHLDEVRESSWTTSNLWGQGTQVTVSSGGGGSGGGGSGGGGSVQLQESGGGLVQPGGSLRLSCAASGSAFSINTMGWYRQAPGKQRELVASVTPGGSTNYADSVKGRFTISRDNAKNTIYLQMNSLRPEDTAVYYCHLDEVRESSWTTSNLWGQGTQVTVSSGGGGSGGGGSGGGGSVQLQESGGGLVQPGGSLRLSCAASGSAFSINTMGWYRQAPGKQRELVASVTPGGSTNYADSVKGRFTISRDNAKNTIYLQMNSLRPEDTAVYYCHLDEVRESSWTTSNLWGQGTQVTVSS",
    "readout kind": "koff",
    "experimental result": 0.000125
  }
]
